Listed here: items and their measured protein stability index.
B1: MLL5 (parent)
chain: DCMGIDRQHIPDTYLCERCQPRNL

variants of: B1; experiment: protein stability index of a GFP-peptide fusion (GPS, HEK-293T) (PSI 1-6); higher = more stable; conditions: c terminus: a fixed tail appended;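 note: lentivirally expressed fusions sorted by FACS into six bins by GFP to DsRed ratio, PSI derived from sequencing read proportions per bin multiplied by bin number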

// worked examples, protein stability index included
INSERT INTO results (mutation_string, observation_type, result) VALUES
  ('M3E', 'protein stability index', 4.56),
  ('C2A', 'protein stability index', 3.09),
  ('D1P', 'protein stability index', 3.3),
  ('H9M', 'protein stability index', 2.16),
  ('L15E', 'protein stability index', 4.66);

Any idea what its protein stability index is? The variant is M3C
3.14

Any idea what its protein stability index is? The variant is G4S
3.45

Any idea what its protein stability index is? The variant is I5N
3.67

Any idea what its protein stability index is? The variant is Q8G
2.59

Any idea what its protein stability index is? The variant is N23F
2.58
